# TARGET_SYSTEM: hSA (Homo sapiens, UniProt P02768)
# Sequence (P02768 25-609): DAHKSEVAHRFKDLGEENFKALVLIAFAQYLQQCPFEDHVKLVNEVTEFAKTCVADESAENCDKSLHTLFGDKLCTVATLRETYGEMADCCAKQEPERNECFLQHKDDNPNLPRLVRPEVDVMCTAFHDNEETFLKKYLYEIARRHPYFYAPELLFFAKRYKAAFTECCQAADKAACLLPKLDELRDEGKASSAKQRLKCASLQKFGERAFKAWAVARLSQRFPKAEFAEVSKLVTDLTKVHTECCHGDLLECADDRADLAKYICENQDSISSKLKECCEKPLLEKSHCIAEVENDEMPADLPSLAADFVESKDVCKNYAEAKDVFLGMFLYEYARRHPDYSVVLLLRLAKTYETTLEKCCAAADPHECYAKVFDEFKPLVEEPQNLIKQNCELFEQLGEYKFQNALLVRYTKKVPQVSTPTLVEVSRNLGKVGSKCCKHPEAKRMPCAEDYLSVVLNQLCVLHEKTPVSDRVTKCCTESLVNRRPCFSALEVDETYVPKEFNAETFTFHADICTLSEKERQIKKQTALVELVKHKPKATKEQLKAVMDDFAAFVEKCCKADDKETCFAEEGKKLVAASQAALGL
# ASSAY_DETAILS: hSA binding assay (hSA-coated microtiter plate, streptavidin-polyHRP/ABTS, OD 405 nm)
MEASUREMENT_TYPE: Binding, Exp 1
Note: the reply should be a number with no unit written.

Solved entries (count: 3):
INSERT INTO measurements (query_sequence, measurement_type, endpoint_value) VALUES
  ('KLIEDICPCTW [Compound 35, KLIEDI-TW, "-" represents cysteine-proline-cysteine]', 'Binding, Exp 1', 0.1327),
  ('RLIVDICPCLW [Compound 12, RLIVDI-LW, "-" represents cysteine-proline-cysteine]', 'Binding, Exp 1', 0.04895),
  ('KLIYDICPCLW [Compound 29, KLIYDI-LW, "-" represents cysteine-proline-cysteine]', 'Binding, Exp 1', 0.1014);

Now consider the entry below.
Given the sequence KLIADICPCLW [Compound 46, KLIADI-LW, "-" represents cysteine-proline-cysteine] and test system hSA (Homo sapiens, UniProt P02768), the measured Binding, Exp 1 is 0.2126

###

Measured Bmax by item
# TARGET_SYSTEM: hSA (Homo sapiens)
# ASSAY_DETAILS: hSA binding assay (hSA-coated microtiter plate, streptavidin-polyHRP/ABTS, OD 405 nm)
# RUN_PARAMETERS: given only for compounds with an Exp 2 value
Reply with the value as a number alone.

# count of solved cases: 4
INSERT INTO measurements (query_sequence, endpoint_value) VALUES
  ('KLIYDICPCLW [Compound 29, KLIYDI-LW, "-" represents cysteine-proline-cysteine]', 0.7912),
  ('RLIDDICPCLW [Compound 6, RLIDDI-LW, "-" represents cysteine-proline-cysteine]', 1.256),
  ('KIIEDICPCLW [Compound 62, KIIEDI-LW, "-" represents cysteine-proline-cysteine]', 0.8075),
  ('RTIEDICPCLW [Compound 99, RTIEDI-LW, "-" represents cysteine-proline-cysteine]', 0.6151);

Record summary for RVIEDICPCLW [Compound 19, RVIEDI-LW, "-" represents cysteine-proline-cysteine] : reported Bmax = 1.089

###

# TARGET_SYSTEM: hSA (Homo sapiens, UniProt P02768)
# ASSAY_DETAILS: hSA binding assay (hSA-coated microtiter plate, streptavidin-polyHRP/ABTS, OD 405 nm)
# RUN_PARAMETERS: given only for compounds with an Exp 2 value
Binarize Bmax at 1; below is yes (1), at or above is no (0).

Some solved cases for reference:
INSERT INTO results (query_sequence, assigned_category) VALUES
  ('REIEDICPCLW [Compound 96, REIEDI-LW, "-" represents cysteine-proline-cysteine]', 'yes (1)'),
  ('KLIADICPCLW [Compound 46, KLIADI-LW, "-" represents cysteine-proline-cysteine]', 'no (0)');

Kindly consider the entry below.
Find out if reported Bmax for RLIQICPCLW [Compound 97, RLIQI-LW, "-" represents cysteine-proline-cysteine] is less than 1
yes (1)

###

Measured Bmax, listed per entry.
# TARGET_SYSTEM: hSA (Homo sapiens, UniProt P02768)
# ASSAY_DETAILS: hSA binding assay (hSA-coated microtiter plate, streptavidin-polyHRP/ABTS, OD 405 nm)
# RUN_PARAMETERS: given only for compounds with an Exp 2 value
Give the value as a plain number.

INSERT INTO results (query_sequence, endpoint_value) VALUES
  ('KQIEDICPCLW [Compound 47, KQIEDI-LW, "-" represents cysteine-proline-cysteine]', 1.4),
  ('KFIEDICPCLW [Compound 13, KFIEDI-LW, "-" represents cysteine-proline-cysteine]', 1.198),
  ('KVIEDICPCLW [Compound 64, KVIEDI-LW, "-" represents cysteine-proline-cysteine]', 0.3906);

Read the next record carefully.
Entry RLISDICPCLW [Compound 98, RLISDI-LW, "-" represents cysteine-proline-cysteine] — recorded Bmax = 1.301
